Molecular target: Polyunsaturated fatty acid 5-lipoxygenase (Homo sapiens, UniProt P09917)
Sequence (P09917 whole entry): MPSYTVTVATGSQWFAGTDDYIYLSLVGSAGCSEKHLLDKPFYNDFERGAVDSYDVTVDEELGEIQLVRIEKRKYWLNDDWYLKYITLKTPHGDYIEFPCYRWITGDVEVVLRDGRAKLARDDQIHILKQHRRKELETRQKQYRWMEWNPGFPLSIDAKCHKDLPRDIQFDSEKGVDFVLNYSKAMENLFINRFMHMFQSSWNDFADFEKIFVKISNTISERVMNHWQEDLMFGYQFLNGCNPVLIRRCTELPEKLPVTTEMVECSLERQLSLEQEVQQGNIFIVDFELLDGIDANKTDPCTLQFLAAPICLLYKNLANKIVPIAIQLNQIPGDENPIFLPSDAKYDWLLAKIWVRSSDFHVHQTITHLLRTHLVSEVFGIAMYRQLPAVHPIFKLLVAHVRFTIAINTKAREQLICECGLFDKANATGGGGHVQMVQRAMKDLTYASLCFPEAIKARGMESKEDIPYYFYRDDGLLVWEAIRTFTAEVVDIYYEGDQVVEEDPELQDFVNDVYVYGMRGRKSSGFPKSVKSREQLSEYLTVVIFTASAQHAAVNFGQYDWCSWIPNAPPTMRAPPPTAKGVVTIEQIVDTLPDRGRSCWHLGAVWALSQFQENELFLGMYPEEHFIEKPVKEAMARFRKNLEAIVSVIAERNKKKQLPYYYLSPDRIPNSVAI
Experiment: Concentration required for 50 % inhibition of leukotriene B4 production in human PMN compared with controls in the absence of compound
Measure: IC50 (nM)
Return type: number; implicit unit nM.

CCCc1cc(Cl)c2oc(Cc3ccc(OC)cc3OC)c(C)c2c1O: 13
CCCc1ccc2oc(Cc3ccc(OC)cc3)c(C)c2c1O: 31
COc1ccc(Cc2oc3cccc(O)c3c2C)cc1: 574
CCCc1cc(C)c2oc(Cc3ccc(OC)cc3)c(C)c2c1O: 12
CCOCc1cc(Cl)c2oc(Cc3ccc(OC)cc3)c(C)c2c1O: 291

Alright, here's another compound for you.
Query the reported IC50 for Polyunsaturated fatty acid 5-lipoxygenase (Homo sapiens, UniProt P09917); item: COc1ccc(Cc2oc3c(Cl)cc(C)c(O)c3c2C)cc1
46

* * *

Molecular target: UniProt P09917
Test: Concentration required for 50 % inhibition of leukotriene B4 production in human PMN compared with controls in the absence of compound
IC50 strictly under 0.03 µM means TRUE; at 0.03 µM or over means FALSE.

C=CCc1cc(Cl)c2oc(Cc3ccc(OC)cc3)c(C)c2c1O: TRUE
COc1ccc(Cc2oc3c(Cl)cc(CCC(=O)O)c(O)c3c2C)cc1: FALSE
COc1ccc(Cc2oc3c(Cl)ccc(O)c3c2C)cc1: FALSE
CCCc1cc(F)c2oc(Cc3ccc(OC)cc3)c(C)c2c1O: TRUE
COc1ccc(Cc2oc3c(Cl)cc(CCCO)c(O)c3c2C)cc1: FALSE
COc1ccc(Cc2oc3c(Cl)cc(C(C)(C)C)c(O)c3c2C)cc1: FALSE

Say whether its IC50 is strictly beneath 0.03 µM. Entry: CCCc1cc(Cl)c2oc(Cc3ccc(OC)cc3)c(CCC)c2c1O
TRUE

Dear reviewer, please state whether COc1ccc(Cc2oc3c(Cl)cc(Cl)c(O)c3c2C)cc1 has IC50 strictly beneath 0.03 µM.
FALSE

Would you kindly verify if IC50 of CCCc1cc(Cl)c2oc(Cc3ccc(Cl)cc3)c(C)c2c1O is strictly less than 0.03 µM?
TRUE

Identify whether the molecule CCCc1cc(Cl)c2oc(Cc3ccc(OCC(=O)O)cc3)c(C)c2c1O records IC50 below 0.03 µM.
FALSE

* * *

Target: Seed linoleate 13S-lipoxygenase-1 (Glycine max, UniProt P08170)
Sequence (P08170 whole entry): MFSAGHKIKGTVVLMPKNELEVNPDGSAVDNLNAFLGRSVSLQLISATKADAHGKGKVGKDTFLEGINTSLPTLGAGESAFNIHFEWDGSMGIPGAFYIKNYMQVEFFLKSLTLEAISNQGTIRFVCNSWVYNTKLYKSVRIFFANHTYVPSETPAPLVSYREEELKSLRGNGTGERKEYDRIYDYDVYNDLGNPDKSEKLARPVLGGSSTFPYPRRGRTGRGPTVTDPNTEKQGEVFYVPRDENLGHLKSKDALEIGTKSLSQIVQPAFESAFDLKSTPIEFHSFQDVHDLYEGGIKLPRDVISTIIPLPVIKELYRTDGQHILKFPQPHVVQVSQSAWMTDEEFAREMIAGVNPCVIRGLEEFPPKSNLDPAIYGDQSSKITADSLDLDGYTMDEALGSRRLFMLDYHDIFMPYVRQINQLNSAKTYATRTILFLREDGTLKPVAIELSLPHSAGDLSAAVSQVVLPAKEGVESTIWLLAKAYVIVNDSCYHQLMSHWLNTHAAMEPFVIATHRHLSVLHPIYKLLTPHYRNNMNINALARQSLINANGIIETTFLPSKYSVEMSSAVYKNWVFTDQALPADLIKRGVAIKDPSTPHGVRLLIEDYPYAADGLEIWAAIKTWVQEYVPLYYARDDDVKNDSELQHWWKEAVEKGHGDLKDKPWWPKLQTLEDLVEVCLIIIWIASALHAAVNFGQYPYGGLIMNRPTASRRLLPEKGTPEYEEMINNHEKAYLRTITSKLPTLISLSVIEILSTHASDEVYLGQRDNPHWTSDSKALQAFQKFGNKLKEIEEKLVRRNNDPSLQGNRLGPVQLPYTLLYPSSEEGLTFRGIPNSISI
Measure: pIC50
Units for pIC50: none; it is -log10 of a concentration expressed in mol/L.

Recorded pIC50 for CCCc1cc(Cl)c2oc(Cc3ccc(OC)cc3)c(C)c2c1O with Seed linoleate 13S-lipoxygenase-1 (Glycine max, UniProt P08170), please?
4.52

* * *

Molecular target: Polyunsaturated fatty acid 5-lipoxygenase (Rattus norvegicus, UniProt P12527)
Sequence (P12527 whole entry): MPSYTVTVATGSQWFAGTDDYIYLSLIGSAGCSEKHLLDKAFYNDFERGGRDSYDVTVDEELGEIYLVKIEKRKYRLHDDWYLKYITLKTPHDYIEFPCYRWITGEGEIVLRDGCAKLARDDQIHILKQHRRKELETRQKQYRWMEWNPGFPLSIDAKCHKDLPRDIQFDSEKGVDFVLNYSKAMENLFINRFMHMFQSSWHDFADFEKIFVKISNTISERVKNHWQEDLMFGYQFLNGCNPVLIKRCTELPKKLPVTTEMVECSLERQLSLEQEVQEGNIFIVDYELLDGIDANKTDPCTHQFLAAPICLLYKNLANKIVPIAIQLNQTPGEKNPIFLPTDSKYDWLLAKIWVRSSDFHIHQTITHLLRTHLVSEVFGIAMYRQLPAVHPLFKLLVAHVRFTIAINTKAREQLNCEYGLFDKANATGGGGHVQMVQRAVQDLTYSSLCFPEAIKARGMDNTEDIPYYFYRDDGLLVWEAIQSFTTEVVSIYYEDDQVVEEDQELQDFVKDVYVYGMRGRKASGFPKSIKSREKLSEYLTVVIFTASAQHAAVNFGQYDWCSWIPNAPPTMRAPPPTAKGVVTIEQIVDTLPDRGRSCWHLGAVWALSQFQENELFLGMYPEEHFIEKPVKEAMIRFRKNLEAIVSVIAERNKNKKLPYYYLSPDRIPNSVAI
Measure: log10 of IC50 (log10 of the value in nM)
Kindly note that the scale is log10 and the underlying IC50 is in nM.

Example cases with answers are listed next.
CCCc1cc(Cl)c2oc(Cc3ccc(OC)cc3)c(C)c2c1O: 1.56
COc1ccc(Cc2oc3cccc(O)c3c2C)cc1: 3.32
CCCc1ccc2oc(Cc3ccc(OC)cc3)c(C)c2c1O: 2.11
CCCc1cc(F)c2oc(Cc3ccc(OC)cc3)c(C)c2c1O: 2.11

Switching to the query record.
Provide value of log10 of IC50 for this record tested with Polyunsaturated fatty acid 5-lipoxygenase (Rattus norvegicus, UniProt P12527): COc1ccc(Cc2oc3c(Cl)cc(CCCO)c(O)c3c2C)cc1
2.21
